- Test system: HCC-2998 colon
- assay_name: NCI-60 one-dose screen, 48 h
- stated_conditions: 10 µM
This is part of a sample that, as a whole, favours compounds with a hit. Of some 83,000 tested, about 20% had one in any assay. The source made the active and inactive calls. The calls were made as follows: active = growth percent below 10; inactive = the rest.
Permitted responses: active, inactive

Task: I would be grateful if you could indicate the recorded call for COc1cc(NC2CCC(=O)N2c2ccc(Cl)cc2Cl)cc(OC)c1OC (stereo not given) .
Output: inactive

Task: I would be grateful if you could indicate the recorded call for COc1ccc2c(c1OC)C(=O)O[C@@H]2[C@H]1c2c(c(C#CC#Cc3ccc(F)c(F)c3)c3c(c2OC)OCO3)CCN1C .
Output: inactive

Task: I would be grateful if you could indicate the recorded call for CC(=O)OC(C(=O)c1ccccc1)c1ccccc1 (stereo not given) .
Output: inactive

Task: I would be grateful if you could indicate the recorded call for O=C(NOC[C@H](O)CO)c1ccc(F)c(F)c1Nc1ccc(I)cc1F .
Output: active

Task: I would be grateful if you could indicate the recorded call for CC(=O)Oc1ccccc1C(=O)N=C1[Se]CCN1C(=O)c1ccccc1OC(C)=O .
Output: active

====

- Tested on: 786-0 renal
- assay_name: NCI-60 one-dose screen, 48 h (100 = growth as untreated, 0 = no growth, -100 = all killed)
- stated_conditions: 10 µM unless noted
Compounds without any hit were thinned out: in the full panel of roughly 83,000, 20% have a hit.
Threshold-based label: growth under 80% gives T, growth not under 80% gives F.

Task: Bench note: check whether Clc1nc(Cl)c2ncn(C/C=C\Cn3cnc4c(Cl)nc(Cl)nc43)c2n1 shows growth below 80%
Output: T

Task: Bench note: check whether COC(=O)c1ccc2c(C(=Nc3ccc(N(C)C(=O)CN4CCN(C)CC4)cc3)c3ccccc3)c(O)[nH]c2c1 shows growth below 80%
Output: T

Task: Bench note: check whether O=c1[nH]c(N2CCOCC2)nc2scc(-c3ccccc3)c12 shows growth below 80%
Output: F

Task: Bench note: check whether Nc1nc(N)c2nc(-c3cccc(O)c3)c(-c3cccc(O)c3)nc2n1 shows growth below 80%
Output: T

Task: Bench note: check whether COc1ccc2c(c1OC)C(=O)O[C@@H]2[C@H]1c2c(c(C#CC#Cc3ccc(F)c(F)c3)c3c(c2OC)OCO3)CCN1C shows growth below 80%
Output: F

Task: Bench note: check whether O=C(NO)c1ccc(Cn2c(=O)n(CCc3ccccc3)c(=O)c3ccccc32)cc1 shows growth below 80%
Output: T

Task: Bench note: check whether CCCCN1CCCC[C@@H]1C(=O)N[C@H](C(=O)N(C)[C@H](CCc1nc(C(=O)N[C@@H](Cc2ccccc2)C[C@H](C)C(=O)OC)cs1)C(C)C)C(C)C shows growth below 80%
Output: T

Task: Bench note: check whether O=C(Cc1ccc(-c2ccc(OCCN3CCOCC3)cc2)cn1)NCc1ccccc1 shows growth below 80%
Output: T

Task: Bench note: check whether COC(=O)CC[C@@H](C)[C@H]1CC[C@H]2C3CC[C@@H]4C[C@@H]5CC[C@]4(C)[C@@]3(O5)[C@H](Br)[C@@H](Br)[C@]12C (stereo partly drawn) shows growth below 80%
Output: F

Task: Bench note: check whether COc1cc(NCCN(CC(C)C)CC(C)C)c2ncc(C)cc2c1 shows growth below 80%
Output: F

Task: Bench note: check whether CC12O[C@H](C[C@@H](OC(=O)CCC(=O)O)[C@H]1O)n1c3ccccc3c3c4c(c5c6ccccc6n2c5c31)C(=O)NC4=O shows growth below 80%
Output: T

Task: Bench note: check whether C=C1C[C@H](O)[C@H](Br)C(C)(C)[C@@]12CCC(C)=C(Cl)C2 shows growth below 80%
Output: T

Task: Bench note: check whether CCn1cc(-c2ccnc3[nH]c(-c4cccc(CN(C)C)c4)cc23)c(-c2ccc(NC(=O)N(C)C)cc2)n1 shows growth below 80%
Output: T

Task: Bench note: check whether NC(=O)Nc1cc(-c2cccc(F)c2)sc1C(=O)N[C@H]1CCCNC1 shows growth below 80%
Output: T

Task: Bench note: check whether Cc1csc(-c2nnc(Nc3ccc(Oc4ncccc4-c4ccnc(N)n4)cc3)c3ccccc23)c1 shows growth below 80%
Output: T

Task: Bench note: check whether C#Cc1cccc(Nc2ncnc3cc(OCCOC)c(OCCOC)cc23)c1 shows growth below 80%
Output: T

Task: Bench note: check whether Cc1c(N)ccc(-c2ccc(N)c(C)c2S(=O)(=O)O)c1S(=O)(=O)O shows growth below 80%
Output: F

Task: Bench note: check whether Clc1ccc2c(NCCNc3nc(N4CCCC4)nc4ccccc34)ccnc2c1 shows growth below 80%
Output: T

====

- Tested on: SK-MEL-2 melanoma
- assay_name: NCI-60 one-dose screen, 48 h (100 = growth as untreated, 0 = no growth, -100 = all killed)
- stated_conditions: 10 µM
The panel holds about 83,000 compounds, 20% with a hit somewhere; the sample as a whole holds those more often. Active and inactive are the calls of the source. How the source made its calls: active means growth percent below 10; inactive means the rest.
measured_parameter: growth

Task: Please state recorded growth (tested on SK-MEL-2 melanoma) of CCN(CC)C(=O)C[N+](C)(C)CCOC(c1ccccc1)c1ccccc1
Output: 103% (inactive)

Task: Please state recorded growth (tested on SK-MEL-2 melanoma) of CC(C)n1c(NCCc2ccc(O)c(O)c2)nc2c1c(=O)n(C)c(=O)n2C
Output: 107% (inactive)

Task: Please state recorded growth (tested on SK-MEL-2 melanoma) of Cc1sc2c(c1C)c(=O)nc1c(-c3nc4ccccc4s3)n[nH]n12
Output: 95.2% (inactive)

Task: Please state recorded growth (tested on SK-MEL-2 melanoma) of Cc1ccsc1C(NC(=O)c1ccccc1)c1cc(Cl)c2cccnc2c1O (stereo unspecified)
Output: 12.6% (inactive)

Task: Please state recorded growth (tested on SK-MEL-2 melanoma) of CSC1=C(N)C(=O)c2[nH]cc(CO)c2C1=N
Output: -52.3% (active)

Task: Please state recorded growth (tested on SK-MEL-2 melanoma) of CCN1CCN(c2cc(C)nc(N(CCCNc3ccnc4cc(Cl)ccc34)Cc3ccc4c(c3)OCO4)n2)CC1
Output: -67.9% (active)

Task: Please state recorded growth (tested on SK-MEL-2 melanoma) of CCNCCNc1cc(-c2ccc(Cl)c(Cl)c2)c(C#N)c2nc3ccccc3n12
Output: -83.1% (active)

Task: Please state recorded growth (tested on SK-MEL-2 melanoma) of O=C(Nc1ccc(C(=O)Nc2ccc(C3=NCCCN3)cc2)cc1)Nc1ccc(C2=NCCCN2)cc1
Output: 62.8% (inactive)

Task: Please state recorded growth (tested on SK-MEL-2 melanoma) of CCOC(=O)Sc1ncnc2nc[nH]c12
Output: 27.9% (inactive)

Task: Please state recorded growth (tested on SK-MEL-2 melanoma) of COc1cc(C2CC(c3ccc(Cl)cc3)=NN2c2ccc(Cl)cc2)cc(OC)c1OC (stereo unspecified)
Output: 98.8% (inactive)

Task: Please state recorded growth (tested on SK-MEL-2 melanoma) of Clc1ccc2c(NCCCNCc3ccc4c(c3)OCO4)ccnc2c1
Output: 29.3% (inactive)

====

- System: SNB-75 CNS
- assay_name: NCI-60 one-dose screen, 48 h
- stated_conditions: 10 µM unless noted
Compounds without any hit were thinned out: in the full panel of roughly 83,000, 20% have a hit. Calls of active or inactive are those of the source. Rule for the calls: active = growth percent below 10; inactive = the rest.
Permitted responses: Y = active, N = inactive

Task: I would be grateful if you could indicate the recorded call for Cc1cn(-c2cc(NC(=O)c3ccc(C)c(Nc4nccc(-c5cnccn5)n4)c3)cc(C(F)(F)F)c2)cn1 .
Output: N

Task: I would be grateful if you could indicate the recorded call for COc1cc2ncnc(Nc3ccc(O)cc3)c2cc1OC .
Output: N

Task: I would be grateful if you could indicate the recorded call for Nc1ncnc2c1c(-c1cccc(OCc3ccccc3)c1)cn2C1CC(CN2CCC2)C1 (stereo not given) .
Output: Y

Task: I would be grateful if you could indicate the recorded call for CCOC(=O)c1sc(NC(=O)COc2ccc(/C=C3\Cc4ccc(Cl)cc4C3=O)cc2)nc1C .
Output: N

Task: I would be grateful if you could indicate the recorded call for COC(=O)[C@@H](C)CNS(=O)(=O)N(c1cc(C(F)(F)F)cc(C(F)(F)F)c1)C1CCN(Cc2ccc(F)cc2)CC1 .
Output: N
